The following binders are shown together with reported Ratio/Fc-WT values.
# assayed_target: T1, FcRn-p3 fusion protein (human, UniProt P55899 24-297; P61769 21-119)
# T1 construct: baculovirus expressed; coated on ELISA wells; not shown: amino terminal part of bacteriophage p3 protein and CVDE protein
# T1 sequence (P55899 24-297, chain 1 of 2): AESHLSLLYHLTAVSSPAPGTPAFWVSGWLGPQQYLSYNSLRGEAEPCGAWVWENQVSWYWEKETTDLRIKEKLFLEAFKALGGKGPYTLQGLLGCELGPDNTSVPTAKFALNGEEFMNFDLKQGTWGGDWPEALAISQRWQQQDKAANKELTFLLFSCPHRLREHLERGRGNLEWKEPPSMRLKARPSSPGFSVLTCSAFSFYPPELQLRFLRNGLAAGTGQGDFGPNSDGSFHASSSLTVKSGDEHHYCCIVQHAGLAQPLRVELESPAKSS
# T1 sequence (P61769 21-119, chain 2 of 2): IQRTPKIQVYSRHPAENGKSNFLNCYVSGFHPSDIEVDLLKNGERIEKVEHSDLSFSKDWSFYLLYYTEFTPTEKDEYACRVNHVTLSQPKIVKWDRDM
# assay_overview: phage ELISA pH6

# binder, Ratio/Fc-WT
records = [
    ("B5A_17 (other, EU numbering) CPPCPAPELLGGPSVFLFPPKPKDTLMISRTPEVTCVVVDVSHEDPEVKFNWYVDGVEVHNAKTKPREEQYNSTYRVVSVLTVLHQDWLDGKEYKCKVSNKALPAPIEKTISKAKGQPREPQVYTLPPSRDELTKNRVSLTCLVKGFYPSDIAVEWESNGQPENNYKTTPPVLDSDGSFFLYSKLTVDKSRWQQGNVFSCSVMHEALHYHYTQKSLSLSPGK", "4.6 fold"),
    ("SSA_20 (other, EU numbering; also called S5A_20 (probable reading)) CPPCQAPELLGGPSVYLFPPRPKDTLMISRTPEVTCVVVDVSHEEPEVKFNWYVDGVEVHNAKTKPREEQYNSTYRVVSVLTVLHQDWLNGKEYKCKVSNKALPAPIEKTISKAKGQPREPQVYTLPPSRDELTKNQVSLTCLVKGFYPSDIAVEWESNGQPENNYKTTPPVLDSDGSFFLYSKLTVDKSRWQQGNVFSCSVMHEALHNHYTQKSLSLSPGK", "4.3 fold"),
    ("B6A_41 (other, EU numbering) CPPCPAPELLGGPSVFLFPPKPKDTLMISRTPEVTCVVVDVSHEDPEVKFNWYVDGVEVHNAKTKPREEQYNSTYRVVSVLTVLHQDWLNGKEYKCKVSNKALPAPIEKTISKAKGQPREPQVYTLPPSRDELTKNQVSLTCLVKGFYPSDIAVEWESNGQPENNYKTTPPVLDSDGSFFLYSKLTVDKSRWQQGNVFSCSVMHEALHYHYTRKSLSLSPGE", "4.3 fold"),
    ("L6B_31 (other, EU numbering) CPPCTAPELLGGPSVFLFPPKPKDTLMISRTPEVTCVVVDVSHEDPEVKFNWYVDGVEVHNAKTKPREEQYNSTYRVVSALAVLHQDWLNGKEYKCKVSNKALPAPIEKTISKAKGQPREPQVYTLPPSRDELTKNQVSLTCLVKGFYPSDIVVEWESNGQPENNYKTTPPVPDSDGSFFLYSKLTVDKSRWQQGNVFSCSVMHEALHSHYTQKSLSLSPGK", "6.3 fold"),
    ("L3A_39 (other, EU numbering) CPPCPAPELLGGPSVFLFPPKPKDTLMISRTPEVTCVVVDVSHEDPEVKFNWYVDGVEVHNAKTKPREEQYNSTYRVVSVLTVLHQDWLNGKEYKCKVSNKALPAPIEKTISKAKGQPREPQVYTLPPSRDELTKNQVSLTCLVKGFYPGDIAVEWESNGQPENNYKTTSPVLDSDGSFFLYSKLTVDKSRWQQGNVFSCSVMHEALHSHYTQKSLSLSPGK", "3.2 fold"),
    ("S4A_14 (other, EU numbering) CPPCPAPELLGGPSVFLFPPKPKDTLMISRTPEVTCVVVDVSHEDPEVKFSWYVDGVEVHNAKTKPREEQYNSTYRVVSVLTVLHQDWLNGKEYKCKVSNKALPAPIEKTISKAKGQPREPQVYTLPPSRDELTKNQVSLTCLVKGFYPSDIVVEWESNGQPENNYKTTPPVLDSDGSFFLYSKLTVDKSRWQQGNVFSCSVMHEALHSHYTQKSLSLSPGK", "5.9 fold"),
    ("S4A_24 (other, EU numbering) CPPCPAPELLGGPSVFLFPPKPKDTLMISRTPEVTCVVEDVSHEDPEVKFNWYVDGVEVHNAKTKPREEQYNSTYCVVSVLTVLHQDWLNGKEYKCKVSNKALPAPIEKTISKAKGQPREPQVYTLPPSRDELTKNQVSLTCLVKGFYPSDIVVEWGSNGQPENNYKTTPPVLDSDGSFFLYSKLTVDKSRWQQGNVFSCSVMHEALHNHYTQKSLSLSPGK", "5.4 fold"),
]

Data origin: patent USRE46585
